# measured-on: SMYD2 (Homo sapiens)
# Construct: Full length SMYD2 (NP_064582.2) was cloned; His6 (N, cleaved yes); FLAG (N); made in house; host or cells: Sf9 insect cells
# experiment-description: SMYD2 biochemical assay (3H-SAM, biotinylated peptide substrate, Flashplate)
# condition: Table 1; average of n = 1 to n = 50; read-out: SMYD2 Biochem IC50
pIC50: −log10 of the molar value.
Known pIC50 of a selection of molecules

Completed entries (count: 4):
# molecule, pIC50
rows = [
    ("C[C@H]1CN(C2CC2)C[C@@H]1NC(=O)c1ccc2c(c1)OC(F)(F)O2 (racemic) [compound 1]", "< 4.30"),
    ("CC1Oc2ccc(C(=O)N[C@H]3CN(C4CC4)C[C@@H]3C)cc2NC1=O (mixture of isomers) [compound 7]", "< 4.30"),
    ("C[C@H]1CN(C2CC2)C[C@H]1NC(=O)c1ccc2c(c1)CC(=O)N2 (racemic) [Cpd. No. 6]", "< 4.30"),
    ("C[C@H]1CN(C2CC2)C[C@@H]1NC(=O)c1ccc2[nH]c(=O)oc2c1 (racemic) [compound 13]", "< 4.30"),
]

Incoming: Given the molecule C[C@H]1CN(C2CC2)C[C@@H]1NC(=O)Cc1ccc2c(c1)NC(=O)CO2 (racemic) [compound 3] , what is its reported pIC50?
Outgoing: < 4.30

Incoming: Given the molecule C[C@H]1CN(C2CC2)C[C@H]1NC(=O)c1cn(C2CC2)nn1 (racemic) [compound 19] , what is its reported pIC50?
Outgoing: 5.85

Incoming: Given the molecule CCc1cc(C(=O)N[C@@H]2CN(C3CC3)C[C@@H]2C)ns1 (racemic) [compound 12] , what is its reported pIC50?
Outgoing: 5.15

Incoming: Given the molecule C[C@H]1CN(C2CC2)C[C@@H]1NC(=O)c1ccc(N2CCCC2)cc1 (racemic) [compound 20] , what is its reported pIC50?
Outgoing: < 4.30

----------
# measured-on: SMYD2 (Homo sapiens, UniProt Q9NRG4)
# Construct: Full length SMYD2 (NP_064582.2) was cloned; His6 (N, cleaved yes); FLAG (N); made in house; host or cells: Sf9 insect cells
# Sequence (Q9NRG4 whole entry): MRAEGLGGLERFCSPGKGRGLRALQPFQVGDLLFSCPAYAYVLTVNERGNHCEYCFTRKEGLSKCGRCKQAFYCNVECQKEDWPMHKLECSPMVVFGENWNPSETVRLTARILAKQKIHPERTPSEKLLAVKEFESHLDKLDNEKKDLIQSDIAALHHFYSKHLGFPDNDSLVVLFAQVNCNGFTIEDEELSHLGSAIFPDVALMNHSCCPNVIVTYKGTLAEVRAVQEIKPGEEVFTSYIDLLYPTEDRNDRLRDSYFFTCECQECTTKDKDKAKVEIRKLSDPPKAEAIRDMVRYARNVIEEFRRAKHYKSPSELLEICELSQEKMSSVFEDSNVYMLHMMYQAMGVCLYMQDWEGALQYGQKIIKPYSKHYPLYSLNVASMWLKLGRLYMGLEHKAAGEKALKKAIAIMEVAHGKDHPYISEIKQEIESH
# experiment-description: SMYD2 biochemical assay (3H-SAM, biotinylated peptide substrate, Flashplate)
# condition: Table 3; average of n = 1 to n = 50; read-out: SMYD2 Biochem IC50
endpoint-label: IC50 (µM)

Completed entries (count: 3):
# compound, unit-of-measurement, assay-result
data = [
    ("CC(C)N1C[C@@H](C)[C@@H](NC(=O)c2cn(C3CC3)cn2)C1 (stereo in doubt)", "µM", 2.2),
    ("CC(C)N1C[C@H](C)[C@H](NC(=O)c2ncc(C3CC3)s2)C1 (racemic)", "µM", 3.3),
    ("C[C@H]1CN(Cc2ccccc2)C[C@H]1NC(=O)c1cc(C2CC2)cnn1 (racemic)", "µM", 0.574),
]

P. CC(C)N1CCC(NC(=O)c2cc(C3CC3)cnn2)C1 (stereo not shown)
Q. C[C@H]1CN(Cc2ccc(OCc3ccccc3)cc2)C[C@H]1NC(=O)c1cn(C2CC2)nn1 (stereo in doubt)
R. CC(C)N1C[C@@H](C)[C@@H](NC(=O)c2cc(C3CC3)cnn2)C1 (stereo in doubt) [compound 101]
S. CC(C)N1C[C@@H](C)[C@H](NC(=O)c2nnc(C3CC3)s2)C1 (racemic)
Incoming: // smallest IC50 at index 0, largest at the end // rank by listing labels in the order requested
Outgoing: R, Q, P, S
